- Tested on: 323965-272-R-J2-PDC complex spheroid growth, % test/control;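 further: compound exposure lasted 7 days starting three days after spheroid seeding; 100% = DMSO vehicle control wells with viability set relative to vehicle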
- Assay Text: Anticancer human tumor 323965-272-R-J2-PDC patient-derived pancreatic carcinoma cell line growth inhibition [Asc]
- Condition Label: second compound 0.0316 µM; first compound 0.3 µM; stronger effect = lower value
Please go through the items and note down their viability, T/C.
Answers are plain numbers, in %.

Guide cases for viability, T/C, answers given:
Compound: NC(=O)C(=Cn1cnc(-c2cc(C(F)(F)F)cc(C(F)(F)F)c2)n1)c1cncnc1 + CNC(C)C(=O)NC1CN(S(=O)(=O)c2cccc(S(=O)(=O)N3CCC4CCC(C(=O)NC(c5ccccc5)c5ccccc5)N4C(=O)C(NC(=O)C(C)NC)C3)c2)CCC2CCC(C(=O)NC(c3ccccc3)c3ccccc3)N2C1=O
Unit Descriptor: %
viability, T/C: 61.7
--
Compound: NC(=O)C(=Cn1cnc(-c2cc(C(F)(F)F)cc(C(F)(F)F)c2)n1)c1cncnc1 + Cc1c(S(C)(=O)=O)c(-c2cc(F)cc(N3CCN(c4ccc(NS(=O)(=O)c5ccc(NC(CCN6CCC(C(=O)OCCCP(=O)(O)O)CC6)CSc6ccccc6)c(S(=O)(=O)C(F)(F)F)c5)cc4)CC3)c2)c(-c2ccc(Cl)cc2)n1C(C)C
Unit Descriptor: %
viability, T/C: 55.8

Q: Need viability, T/C, item CCN1C(C(=O)NC23CCC(C(=O)O)(CC2)CC3)C(c2cccc(Cl)c2F)C2(C(=O)Nc3cc(Cl)ccc32)C12CCCCC2 (stereo not drawn) + CNC(C)C(=O)NC1CN(S(=O)(=O)c2cccc(S(=O)(=O)N3CCC4CCC(C(=O)NC(c5ccccc5)c5ccccc5)N4C(=O)C(NC(=O)C(C)NC)C3)c2)CCC2CCC(C(=O)NC(c3ccccc3)c3ccccc3)N2C1=O
Ans: 101
